Just for reference, ChEMBL document CHEMBL3399968 is where these values come from.

This section presents molecules with their documented Ki values.
Target: Alkaline phosphatase, tissue-nonspecific isozyme (Bos taurus)
Sequence (P09487 whole entry): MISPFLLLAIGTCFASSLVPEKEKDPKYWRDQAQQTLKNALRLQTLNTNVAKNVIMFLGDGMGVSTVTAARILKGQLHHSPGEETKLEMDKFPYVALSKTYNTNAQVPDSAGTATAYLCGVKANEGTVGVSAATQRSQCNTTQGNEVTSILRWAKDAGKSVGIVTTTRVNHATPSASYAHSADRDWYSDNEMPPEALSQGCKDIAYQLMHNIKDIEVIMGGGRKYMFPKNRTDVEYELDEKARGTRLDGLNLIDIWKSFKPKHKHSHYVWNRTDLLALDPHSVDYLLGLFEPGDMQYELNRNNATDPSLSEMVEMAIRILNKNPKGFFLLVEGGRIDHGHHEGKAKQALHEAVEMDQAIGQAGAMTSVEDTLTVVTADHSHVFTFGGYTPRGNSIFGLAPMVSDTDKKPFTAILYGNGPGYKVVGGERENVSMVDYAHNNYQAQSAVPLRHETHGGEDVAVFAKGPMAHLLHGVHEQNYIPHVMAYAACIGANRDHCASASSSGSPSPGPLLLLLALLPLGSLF

{"columns": ["Chem Smiles", "Ki"],
 "data": [
  ["NS(=O)(=O)c1ccc(NS(=O)(=O)c2ccc(F)cc2)cc1", "1390 nM"],
  ["NS(=O)(=O)c1ccc(CNC(=O)c2ccccc2)cc1", "918 nM"],
  ["Cc1ccc(S(=O)(=O)Nc2cccc(S(N)(=O)=O)c2)cc1", "950 nM"],
  ["NS(=O)(=O)c1ccc(CNS(=O)(=O)c2ccc(F)cc2)cc1", "1250 nM"]
]}
